System name: cereblon (CRBN)—DNA damage protein 1 (DDB1) complex (Homo sapiens)
Construct: encoding amino acid residues 1 to 442 (Uniprot Q96SW2); hexahistidine (N); thrombin cleavage site (N); made in house; host or cells: Sf9 insect cells (baculovirus co-infection)
Sequence (Q96SW2 with tags, fused parts or gaps): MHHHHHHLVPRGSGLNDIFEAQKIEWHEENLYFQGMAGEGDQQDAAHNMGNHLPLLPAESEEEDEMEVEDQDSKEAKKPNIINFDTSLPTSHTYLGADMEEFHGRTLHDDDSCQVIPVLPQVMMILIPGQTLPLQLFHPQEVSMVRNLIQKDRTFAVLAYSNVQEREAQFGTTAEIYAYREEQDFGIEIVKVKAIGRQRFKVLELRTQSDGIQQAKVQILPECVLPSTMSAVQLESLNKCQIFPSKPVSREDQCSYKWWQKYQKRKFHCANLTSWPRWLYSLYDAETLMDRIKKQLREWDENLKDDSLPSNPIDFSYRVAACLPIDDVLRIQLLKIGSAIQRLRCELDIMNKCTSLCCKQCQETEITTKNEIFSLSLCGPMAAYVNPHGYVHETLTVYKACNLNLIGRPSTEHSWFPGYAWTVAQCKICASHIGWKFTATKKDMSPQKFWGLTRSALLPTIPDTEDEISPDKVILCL
Assay remarks: Cereblon HTRF binding assay
Recorded metric: IC50

| Given smiles | Recorded metric | Result |
| --- | --- | --- |
| O=C1CCN(c2ccc3[nH]ncc3c2)C(=O)N1 | IC50 | 2970 nM |
| O=C1CCN(c2ccc3cn(C4CCNCC4)nc3c2)C(=O)N1 | IC50 | 1030 nM |
| CN1CCC(n2cc3ccc(N4CCC(=O)NC4=O)cc3n2)CC1 | IC50 | 655 nM |
| Cn1ccc2ccc(N3CCC(=O)NC3=O)cc21 | IC50 | 329 nM |
| N#Cc1ncc(N2CCC(=O)NC2=O)c2cc[nH]c12 | IC50 | 594 nM |
| O=C1CCN(c2ccc3[nH]ccc3c2)C(=O)N1 | IC50 | 341 nM |
| O=C1CCN(c2ccc3cnoc3c2)C(=O)N1 | IC50 | 82 nM |
| O=C1CCN(c2ccc3ncoc3c2)C(=O)N1 | IC50 | 6740 nM |
| Cc1c(N2CCC(=O)NC2=O)ccc2cc[nH]c12 | IC50 | 96 nM |
| CC(=O)N1CCN(c2noc3cc(N4CCC(=O)NC4=O)ccc23)CC1 | IC50 | 6580 nM |
| CNC(=O)CCn1ccc2ccc(N3CCC(=O)NC3=O)cc21 | IC50 | 3540 nM |
| N#Cc1cc(N2CCC(=O)NC2=O)cc2[nH]ccc12 | IC50 | 1660 nM |
| O=C1CCN(c2ccc3c(c2)CCN3)C(=O)N1 | IC50 | 357 nM |
| COc1cc(N2CCC(=O)NC2=O)c2ccn(C)c2c1 | IC50 | 211 nM |
| Cn1c(C2CCNCC2)cc2c(N3CCC(=O)NC3=O)cccc21 | IC50 | 679 nM |
| CC(=O)N1CCC(n2ccc3cc(N4CCC(=O)NC4=O)ccc32)CC1 | IC50 | 933 nM |
| Cn1ccc2c(N3CCC(=O)NC3=O)ccc(N3CCNCC3)c21 | IC50 | 458 nM |
| CC(=O)N1CCN(c2c[nH]c3ccc(N4CCC(=O)NC4=O)cc23)CC1 | IC50 | 1980 nM |

Reference for the values: patent US20230374007A1
